# assay-target: Prostaglandin G/H synthase 2 (Homo sapiens);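 further: recombinant human COX2 made in Sf9 insect cells, read-out is reactive oxygen species formed on arachidonic acid stimulation, measured after 30 min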
# Sequence (whole entry): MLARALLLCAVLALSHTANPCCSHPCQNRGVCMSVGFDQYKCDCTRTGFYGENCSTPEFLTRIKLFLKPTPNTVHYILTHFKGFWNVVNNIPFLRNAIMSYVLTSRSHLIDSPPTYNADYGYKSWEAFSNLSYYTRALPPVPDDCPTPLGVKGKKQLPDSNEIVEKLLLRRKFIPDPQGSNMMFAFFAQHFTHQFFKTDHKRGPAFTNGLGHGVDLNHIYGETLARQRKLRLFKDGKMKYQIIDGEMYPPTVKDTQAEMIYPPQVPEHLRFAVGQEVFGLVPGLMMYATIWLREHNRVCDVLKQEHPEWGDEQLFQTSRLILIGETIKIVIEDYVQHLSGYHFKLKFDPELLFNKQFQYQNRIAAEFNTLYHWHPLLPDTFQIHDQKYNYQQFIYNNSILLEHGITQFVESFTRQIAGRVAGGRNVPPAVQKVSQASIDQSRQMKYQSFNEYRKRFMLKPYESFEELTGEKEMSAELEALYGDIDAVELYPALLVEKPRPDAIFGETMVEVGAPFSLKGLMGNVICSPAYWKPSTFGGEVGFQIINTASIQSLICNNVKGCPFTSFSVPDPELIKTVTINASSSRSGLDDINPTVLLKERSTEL
# condition-context: Spodoptera frugiperda; Sf9; at 10 µM
# Description: Inhibition of human recombinant COX2 expressed in insect sf9 cells assessed as arachidonic acid-stimulated reactive oxygen species at 10 uM after 30 mins
assay-readout: inhibition (%)

smiles-str	assay-target	assay-readout	value-observed
COC(=O)[C@@]1(C)CC[C@]2(C(=O)N3CCNCC3)CC[C@]3(C)C(=CC[C@@H]4[C@@]5(C)C[C@H](O)[C@H](O[C@@H]6OC[C@@H](O[C@@H]7O[C@H](CO)[C@@H](O)[C@H](O)[C@H]7O)[C@H](O)[C@H]6O)[C@@](C)(CO)[C@@H]5CC[C@]43C)[C@@H]2C1	Prostaglandin G/H synthase 2 (Homo sapiens)	inhibition	4.6
COC(=O)[C@@]1(C)CC[C@]2(C(=O)NCc3ccc(OC)cc3)CC[C@]3(C)C(=CC[C@@H]4[C@@]5(C)C[C@H](O)[C@H](O[C@@H]6OC[C@@H](O[C@@H]7O[C@H](CO)[C@@H](O)[C@H](O)[C@H]7O)[C@H](O)[C@H]6O)[C@@](C)(CO)[C@@H]5CC[C@]43C)[C@@H]2C1	Prostaglandin G/H synthase 2 (Homo sapiens)	inhibition	56.8
COC(=O)[C@@]1(C)CC[C@]2(C(=O)NCc3ccc(OC)c(OC)c3)CC[C@]3(C)C(=CC[C@@H]4[C@@]5(C)C[C@H](O)[C@H](O[C@@H]6OC[C@@H](O[C@@H]7O[C@H](CO)[C@@H](O)[C@H](O)[C@H]7O)[C@H](O)[C@H]6O)[C@@](C)(CO)[C@@H]5CC[C@]43C)[C@@H]2C1	Prostaglandin G/H synthase 2 (Homo sapiens)	inhibition	19.4

====

Recorded log10 HC50 at 1 h by entry
# test-summary: Toxicity against new Zealand rabbit blood assessed as hemolysis after 60 mins
# Type: tissue-based, Oryctolagus cuniculus
# condition-context: read-out: HD50
assay-readout: log10 HC50 at 1 h (log10 of the value in µM)

smiles-str	log10 HC50 at 1 h
COC(=O)[C@@]1(C)CC[C@]2(C(=O)NCCc3ccccc3)CC[C@]3(C)C(=CC[C@@H]4[C@@]5(C)C[C@H](O)[C@H](O[C@@H]6OC[C@@H](O[C@@H]7O[C@H](CO)[C@@H](O)[C@H](O)[C@H]7O)[C@H](O)[C@H]6O)[C@@](C)(CO)[C@@H]5CC[C@]43C)[C@@H]2C1	1.33
COC(=O)[C@@]1(C)CC[C@]2(C(=O)NCc3ccc(OC)cc3)CC[C@]3(C)C(=CC[C@@H]4[C@@]5(C)C[C@H](O)[C@H](O[C@@H]6OC[C@@H](O[C@@H]7O[C@H](CO)[C@@H](O)[C@H](O)[C@H]7O)[C@H](O)[C@H]6O)[C@@](C)(CO)[C@@H]5CC[C@]43C)[C@@H]2C1	1.10
COC(=O)[C@@]1(C)CC[C@]2(C(=O)On3nnc4ccccc43)CC[C@]3(C)C(=CC[C@@H]4[C@@]5(C)C[C@H](O)[C@H](O[C@@H]6OC[C@@H](O[C@@H]7O[C@H](CO)[C@@H](O)[C@H](O)[C@H]7O)[C@H](O)[C@H]6O)[C@@](C)(CO)[C@@H]5CC[C@]43C)[C@@H]2C1	1.74
COC(=O)[C@@]1(C)CC[C@]2(C(=O)NCc3ccc(F)cc3)CC[C@]3(C)C(=CC[C@@H]4[C@@]5(C)C[C@H](O)[C@H](O[C@@H]6OC[C@@H](O[C@@H]7O[C@H](CO)[C@@H](O)[C@H](O)[C@H]7O)[C@H](O)[C@H]6O)[C@@](C)(CO)[C@@H]5CC[C@]43C)[C@@H]2C1	1.98
COC(=O)[C@@]1(C)CC[C@]2(C(=O)NCc3ccccc3Cl)CC[C@]3(C)C(=CC[C@@H]4[C@@]5(C)C[C@H](O)[C@H](O[C@@H]6OC[C@@H](O[C@@H]7O[C@H](CO)[C@@H](O)[C@H](O)[C@H]7O)[C@H](O)[C@H]6O)[C@@](C)(CO)[C@@H]5CC[C@]43C)[C@@H]2C1	1.63
COC(=O)[C@@H](CCSC)NC(=O)[C@]12CC[C@](C)(C(=O)OC)C[C@H]1C1=CC[C@@H]3[C@@]4(C)C[C@H](O)[C@H](O[C@@H]5OC[C@@H](O[C@@H]6O[C@H](CO)[C@@H](O)[C@H](O)[C@H]6O)[C@H](O)[C@H]5O)[C@@](C)(CO)[C@@H]4CC[C@@]3(C)[C@]1(C)CC2	2.31
CCCCNC(=O)[C@]12CC[C@](C)(C(=O)OC)C[C@H]1C1=CC[C@@H]3[C@@]4(C)C[C@H](O)[C@H](O[C@@H]5OC[C@@H](O[C@@H]6O[C@H](CO)[C@@H](O)[C@H](O)[C@H]6O)[C@H](O)[C@H]5O)[C@@](C)(CO)[C@@H]4CC[C@@]3(C)[C@]1(C)CC2	1.20
COC(=O)[C@@]1(C)CC[C@]2(C(=O)NCc3ccccc3)CC[C@]3(C)C(=CC[C@@H]4[C@@]5(C)C[C@H](O)[C@H](O[C@@H]6OC[C@@H](O[C@@H]7O[C@H](CO)[C@@H](O)[C@H](O)[C@H]7O)[C@H](O)[C@H]6O)[C@@](C)(CO)[C@@H]5CC[C@]43C)[C@@H]2C1	2.13
COC(=O)[C@@H](Cc1ccccc1)NC(=O)[C@]12CC[C@](C)(C(=O)OC)C[C@H]1C1=CC[C@@H]3[C@@]4(C)C[C@H](O)[C@H](O[C@@H]5OC[C@@H](O[C@@H]6O[C@H](CO)[C@@H](O)[C@H](O)[C@H]6O)[C@H](O)[C@H]5O)[C@@](C)(CO)[C@@H]4CC[C@@]3(C)[C@]1(C)CC2	2.31

Source listed as ChEMBL document CHEMBL1138252.
